Recorded protein stability index for the following variants
B1: KLHL13 (parent)
chain: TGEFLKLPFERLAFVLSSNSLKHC

Variants of: B1
assay-notes: protein stability index of a GFP-peptide fusion (GPS, HEK-293T) (PSI 1-6); higher = more stable;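 also: lentivirally expressed fusions sorted by FACS into six bins by GFP to DsRed ratio, PSI derived from sequencing read proportions per bin multiplied by bin number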
experimental-setup: c terminus: a fixed tail appended
reported-endpoint: protein stability index

- L21D: 2.79
- F14D: 1.98
- F14W: 3.04
- L21F: 1.42
- S17W: 3.66
- S20E: 2.34
- L16H: 1.89
- S20T: 2.98
- G2H: 3.72
- R11H: 1.62
- F4D: 1.55
